Experiment: Ratio of drug uptake in brain to plasma in C57/B1 mouse at […], sc administered for 24 hrs
Format: ADME, organism-based
Details: read-out: BPR
measurement label: Kp at 24 h

The compound listed as CC(=O)N[C@@H](Cc1ccccc1)[C@H](O)CNC1CC(C)(C)Cc2nn(CC(C)(C)C)cc21 (mixture of isomers) has a reported Kp at 24 h of 0.69
